Listed below: pIC50 values for each entry.
- TARGET OF ASSAY: protein-protein interaction between Kras and SOS1 (biotin-tagged human Kras loaded with GDP, His-tagged human SOS1) (Homo sapiens (Human), UniProt P01116, G12D)
- ASSAY TEXT: Protein-protein interaction inhibition between Kras and SOS1 (KrasG12D-SOS PPI) using AlphaScreen
- Assay type: biochemical
- ASSAY CONTEXT: AlphaScreen; biotin-tagged human Kras loaded with GDP, His-tagged human SOS1; read-out: KRAS G12D-SOS PPI IC50
pIC50: −log10 of the molar value. Numbered stars: 1 amine (or outer) side, 2 acyl side, 3 side chain; on linkers, the order of the positions; unused ones are H or OH. Square brackets hold non-standard residues; d marks the D form. Peptide text beside a SMILES is read from it. hPhe(3-Cl-4-CF3) = N[C@@H](CCc1ccc(C(F)(F)F)c(Cl)c1)C(=O)O; NMePhe(4-CF3) = CN[C@@H](Cc1ccc(C(F)(F)F)cc1)C(=O)O; NEtPhe(4-Me) = CCN[C@@H](Cc1ccc(C)cc1)C(=O)O; NMedβ3hAla = C[C@H](CC(=O)[*:2])N(C)[*:1]; Pro(4,4-F2) = O=C(O)[C@@H]1CC(F)(F)CN1; Hyp = O=C(O)[C@@H]1C[C@@H](O)CN1; NMeI = CC[C@H](C)[C@H](NC)C(=O)O; NMeL = CN[C@@H](CC(C)C)C(=O)O; NMeA = CN[C@@H](C)C(=O)O; Ac5c = NC1(C(=O)O)CCCC1; Aze = O=C(O)[C@@H]1CCN1; Ac4c = NC1(C(=O)O)CCC1; Sar = CNCC(=O)O
READOUT NAME: pIC50

{"COMPOUND": "CCO[C@@H]1C[C@H]2C(=O)NC3(CCCC3)C(=O)N(C)[C@@H]([C@@H](C)CC)C(=O)N(C)[C@H](C)CC(=O)N(C)[C@@H](CC(C)C)C(=O)N[C@@H]([C@@H](C)CC)C(=O)N(C)[C@@H](C)C(=O)N3CC[C@H]3C(=O)N(CC)[C@@H](Cc3ccc(C)cc3)C(=O)N(C)CC(=O)N[C@@H](CCc3ccc(C(F)(F)F)c(Cl)c3)C(=O)N2C1 [Compound 951] (cyclo([Ac5c][NMeI][NMedβ3hAla][NMeL]I[NMeA][Aze][NEtPhe(4-Me)][Sar][hPhe(3-Cl-4-CF3)][Hyp](Et)))", "READOUT NAME": "pIC50", "VAL": 8.10}
{"COMPOUND": "CC[C@H](C)[C@@H]1NC(=O)[C@H](CC(C)C)N(C)C(=O)C[C@@H](C)N(C)C(=O)[C@H]([C@@H](C)CC)N(C)C(=O)C2(CCC2)NC(=O)[C@@H]2CC(F)(F)CN2C(=O)[C@H](CCc2ccc(C(F)(F)F)c(Cl)c2)NC(=O)CN(C)C(=O)[C@H](Cc2ccc(C(F)(F)F)cc2)N(C)C(=O)[C@@H]2CCN2C(=O)[C@H](C)N(C)C1=O [Compound 462] (cyclo([Ac4c][NMeI][NMedβ3hAla][NMeL]I[NMeA][Aze][NMePhe(4-CF3)][Sar][hPhe(3-Cl-4-CF3)][Pro(4,4-F2)]))", "READOUT NAME": "pIC50", "VAL": 7.92}

---

- TARGET OF ASSAY: protein-protein interaction between Kras and SOS1 (biotin-tagged human Kras loaded with GDP, His-tagged human SOS1) (Homo sapiens (Human), UniProt P01116, G12D)
- ASSAY TEXT: Protein-protein interaction inhibition between Kras and SOS1 (KrasG12D-SOS PPI) using AlphaScreen
- Type: biochemical
- ASSAY CONTEXT: AlphaScreen; biotin-tagged human Kras loaded with GDP, His-tagged human SOS1; read-out: KRAS G12D-SOS PPI IC50
pIC50: −log10 of the molar value. Numbered stars: 1 amine (or outer) side, 2 acyl side, 3 side chain; on linkers, the order of the positions; unused ones are H or OH. Square brackets hold non-standard residues; d marks the D form. Peptide text beside a SMILES is read from it. hPhe(3-Cl-4-CF3) = N[C@@H](CCc1ccc(C(F)(F)F)c(Cl)c1)C(=O)O; NMePhe(4-Me) = CN[C@@H](Cc1ccc(C)cc1)C(=O)O; NMedβ3hAla = C[C@H](CC(=O)[*:2])N(C)[*:1]; NMeGly(cPent) = CN[C@H](C(=O)O)C1CCCC1; NMeCha = CN[C@@H](CC1CCCCC1)C(=O)O; Hyp = O=C(O)[C@@H]1C[C@@H](O)CN1; NMeChg = CN[C@H](C(=O)O)C1CCCCC1; NMeL = CN[C@@H](CC(C)C)C(=O)O; d(β3hA) = C[C@@H](N)CC(=O)O; NMeA = CN[C@@H](C)C(=O)O; Ac5c = NC1(C(=O)O)CCCC1; Aze = O=C(O)[C@@H]1CCN1; Sar = CNCC(=O)O

{"MOLECULE": "CC[C@H](C)[C@@H]1NC(=O)[C@H](CC(C)C)N(C)C(=O)C[C@@H](C)NC(=O)[C@H](C2CCCCC2)N(C)C(=O)C2(CCCC2)NC(=O)[C@@H]2CCCN2C(=O)[C@H](CCc2ccc(C(F)(F)F)c(Cl)c2)NC(=O)CN(C)C(=O)[C@H](Cc2ccc(C)cc2)N(C)C(=O)[C@@H]2CCN2C(=O)[C@H](C)N(C)C1=O [Compound 1747] (cyclo([Ac5c][NMeChg][d(β3hA)][NMeL]I[NMeA][Aze][NMePhe(4-Me)][Sar][hPhe(3-Cl-4-CF3)]P))", "pIC50": 7.80}
{"MOLECULE": "CCO[C@@H]1C[C@H]2C(=O)NC3(CCCC3)C(=O)N(C)[C@@H](C3CCCC3)C(=O)N(C)[C@H](C)CC(=O)N(C)[C@@H](CC(C)C)C(=O)N[C@@H]([C@@H](C)CC)C(=O)N(C)CC(=O)N(C)CC(=O)N(C)[C@@H](CC3CCCCC3)C(=O)N(C)CC(=O)N[C@@H](CCc3ccc(C(F)(F)F)c(Cl)c3)C(=O)N2C1 [Compound 510] (cyclo([Ac5c][NMeGly(cPent)][NMedβ3hAla][NMeL]I[Sar][Sar][NMeCha][Sar][hPhe(3-Cl-4-CF3)][Hyp](Et)))", "pIC50": 8.40}

---

- TARGET OF ASSAY: protein-protein interaction between Kras and SOS1 (biotin-tagged human Kras loaded with GDP, His-tagged human SOS1) (Homo sapiens (Human), UniProt P01116, G12D)
- ASSAY TEXT: Protein-protein interaction inhibition between Kras and SOS1 (KrasG12D-SOS PPI) using AlphaScreen
- Format: biochemical
- ASSAY CONTEXT: AlphaScreen; biotin-tagged human Kras loaded with GDP, His-tagged human SOS1; read-out: KRAS G12D-SOS PPI IC50
Bridge positions count the residues as written; N and C are the ends. Square brackets hold non-standard residues; d marks the D form. Peptide text beside a SMILES is read from it. * marks the point of attachment. hPhe(3,5-F2-4-CF3) = N[C@@H](CCc1cc(F)c(C(F)(F)F)c(F)c1)C(=O)O; NMePhe(4-CF3) = CN[C@@H](Cc1ccc(C(F)(F)F)cc1)C(=O)O; NMeAbu(4,4,4-F3) = CN[C@@H](CC(F)(F)F)C(=O)O; Hyp = O=C(O)[C@@H]1C[C@@H](O)CN1; NMeChg = CN[C@H](C(=O)O)C1CCCCC1; NMeD = CN[C@@H](CC(=O)O)C(=O)O; Morpholide = C1CN(*)CCO1; Ac5c = NC1(C(=O)O)CCCC1; Sar = CNCC(=O)O
READOUT NAME: IC50

{"COMPOUND": "CCO[C@@H]1C[C@H]2C(=O)NC3(CCCC3)C(=O)N(C)[C@@H](C3CCCCC3)C(=O)N(C)[C@H](C(=O)N3CCOCC3)CC(=O)N(C)[C@@H](CC(F)(F)F)C(=O)N[C@@H]([C@@H](C)CC)C(=O)N(C)CC(=O)N(C)CC(=O)N(C)[C@@H](Cc3ccc(C(F)(F)F)cc3)C(=O)N(C)CC(=O)N[C@@H](CCc3cc(F)c(C(F)(F)F)c(F)c3)C(=O)N2C1 [Compound 1297] ([NMeAbu(4,4,4-F3)]I[Sar][Sar][NMePhe(4-CF3)][Sar][hPhe(3,5-F2-4-CF3)][Hyp](Et)[Ac5c][NMeChg][NMeD]-Morpholide; lactam N-11)", "READOUT NAME": "IC50", "VAL": "0.51 nM"}

---

# pIC50 annotations
- TARGET OF ASSAY: protein-protein interaction between Kras and SOS1 (biotin-tagged human Kras loaded with GDP, His-tagged human SOS1) (Homo sapiens (Human), UniProt P01116, G12D)
- ASSAY TEXT: Protein-protein interaction inhibition between Kras and SOS1 (KrasG12D-SOS PPI) using AlphaScreen;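 also: kras produced in E. coli, Ni-coupled donor beads and streptavidin acceptor beads, excitation 680 nm with emission detected at 520–620 nm via singlet oxygen transfer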
- Assay type: biochemical
- ASSAY CONTEXT: AlphaScreen; biotin-tagged human Kras loaded with GDP, His-tagged human SOS1; read-out: KRAS G12D-SOS PPI IC50
pIC50: −log10 of the molar value. Bridge positions count the residues as written; N and C are the ends. Square brackets hold non-standard residues; d marks the D form. Peptide text beside a SMILES is read from it. * marks the point of attachment. hPhe(3-Cl-4-CF3) = N[C@@H](CCc1ccc(C(F)(F)F)c(Cl)c1)C(=O)O; hPhe(4-Cl) = N[C@@H](CCc1ccc(Cl)cc1)C(=O)O; NMeCha = CN[C@@H](CC1CCCCC1)C(=O)O; NMeD = CN[C@@H](CC(=O)O)C(=O)O; NMeL = CN[C@@H](CC(C)C)C(=O)O; NMeV = CN[C@H](C(=O)O)C(C)C; NMeA = CN[C@@H](C)C(=O)O; Piperidide = C1CCN(*)CC1; Ac5c = NC1(C(=O)O)CCCC1; Aze = O=C(O)[C@@H]1CCN1; Sar = CNCC(=O)O
READOUT NAME: pIC50

{"COMPOUND": "CC[C@H](C)[C@@H]1NC(=O)[C@H](CC(C)C)N(C)C(=O)C[C@@H](C(=O)N2CCCCC2)N(C)C(=O)[C@H](C(C)C)N(C)C(=O)C2(CCCC2)NC(=O)[C@@H]2CCCN2C(=O)[C@H](CCc2ccc(Cl)cc2)NC(=O)CN(C)C(=O)[C@H](CC2CCCCC2)N(C)C(=O)[C@@H]2CCN2C(=O)CN(C)C1=O [Compound 916] ([NMeL]I[Sar][Aze][NMeCha][Sar][hPhe(4-Cl)]P[Ac5c][NMeV][NMeD]-Piperidide; lactam N-11)", "VAL": 7.38}
{"COMPOUND": "CC(C)C[C@H]1C(=O)N[C@@H](C)C(=O)N(C)[C@@H](C)C(=O)N2CC[C@H]2C(=O)N(C)[C@@H](CC2CCCCC2)C(=O)N(C)CC(=O)N[C@@H](CCc2ccc(C(F)(F)F)c(Cl)c2)C(=O)N2CCC[C@H]2C(=O)NC2(CCCC2)C(=O)N(C)[C@@H](C(C)C)C(=O)N(C)[C@H](C(=O)N2CCCCC2)CC(=O)N1C [Compound 1780] ([NMeL]A[NMeA][Aze][NMeCha][Sar][hPhe(3-Cl-4-CF3)]P[Ac5c][NMeV][NMeD]-Piperidide; lactam N-11)", "VAL": 6.92}

These measurements were taken from patent US20240148821A1.
